Study the reported IC50 values for Tyrosine-protein kinase JAK2 (Homo sapiens) given below; they originate from different publications.

Q: Given the molecule Cc1cnc(Nc2ccc(OCCO)cc2)nc1Nc1cccc(S(=O)(=O)NC(C)(C)C)c1 , what is its reported IC50?
A: 16.3 nM

Q: Given the molecule [2H]C([2H])([2H])c1cc(O)c(F)cc1-c1ccc2c(-c3nc4c([nH]3)CN(C(=O)N3CC[C@H](O)C3)C4)n[nH]c2c1 , what is its reported IC50?
A: 0.013 nM

Q: Given the molecule [2H]C([2H])([2H])NC(=O)c1cnc(NC(=O)C2CC2)cc1Nc1ncc2cnn(CC)c2c1OC , what is its reported IC50?
A: > 5000 nM
